These measurements were taken from paper PMC7497253.

Recorded pKi, one value per entry.
target: WNV NS2B-NS3 protease (WNV-Pro) (West Nile virus, UniProt P06935); construct: NS3 has to form a complex with its cofactor NS2B to achieve proteolytic activity; The viral protease consists of the N‐terminal third of the nonstructural protein NS3; assay: Enzyme kinetics with the covalent WNV NS2B-NS3 construct, substrate Phac-Leu-Lys-Lys-Arg-AMC; type: biochemical
Sequence (P06935 1424-1463): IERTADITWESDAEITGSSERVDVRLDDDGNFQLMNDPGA
Sequence (P06935 1502-1679): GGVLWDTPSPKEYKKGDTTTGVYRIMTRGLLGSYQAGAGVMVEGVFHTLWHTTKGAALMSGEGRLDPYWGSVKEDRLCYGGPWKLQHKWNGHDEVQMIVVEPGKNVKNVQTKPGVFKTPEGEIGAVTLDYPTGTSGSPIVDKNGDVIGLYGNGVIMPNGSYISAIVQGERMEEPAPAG
pKi: −log10 of the molar value.
measure: pKi

* N=C(N)N[C@@H]1CCCCNC(=O)[C@H](CCCCN)NC(=O)[C@H](CCCCN)NC(=O)Cc2cccc(c2)CNC1=O | 4.82
* N=C(N)N[C@@H]1CCCCNC(=O)[C@H](CCCCN)NC(=O)[C@H](CCCCN)NC(=O)CCCNC(=O)CNC1=O | 5.17
* N=C(N)N[C@@H]1CCCNC(=O)[C@H](CCCCN)NC(=O)[C@H](CCCCN)NC(=O)Cc2ccc(cc2)CNC(=O)CCCNC1=O | 4.66
